# protocol-summary: Acute toxicity (LD50) to beagle
# Assay type: in vivo
# condition-label: dog, in vivo; beagle, intravenous
observable: LD50

Item C=C(OP(=O)(O)O)C(=O)O [PEP.Na, monohydrate] : provide LD50
≥ 1000 mg/kg

====

# protocol-summary: Acute toxicity (LD50) to beagle
# Assay type: in vivo
# condition-label: dog, in vivo; beagle, oral
observable: LD50

Item C=C(OP(=O)(O)O)C(=O)O [PEP.Na, monohydrate] : provide LD50
≥ 3000 mg/kg
